Target or system: Human immunodeficiency virus type 1 protease (Human immunodeficiency virus 1)
Method notes: Tested for the binding affinity against HIV-1 Protease
Metric name: Ki (nM)
Note: unit nM is implicit; provide only the numeric part.

Record summary for CCC(Cc1ccccc1)c1cc(O)c(C(CC)c2ccccc2)c(=O)o1 (stereo unspecified) : reported Ki = 38

====

Target or system: Human immunodeficiency virus type 1 protease (Human immunodeficiency virus 1, UniProt Q72874)
Method notes: Tested for the HIV Protease inhibitory activity of the compound
Measured pKi by item
// pKi is dimensionless: -log10 of concentration (M)

{"columns": ["Molecule", "pKi"],
 "data": [
  ["CCC(c1ccccc1)c1c(O)cc(CCc2ccccc2)oc1=O (configuration not stated)", 6.30]
]}

Record summary for CCC(c1ccccc1)c1c(O)c2ccccc2oc1=O (configuration not stated) [PHENPROCOUMON] : reported pKi = 6.00
